Test system: colon adenocarcinoma #38
Assay Remarks: antitumor activity in mice against colon adenocarcinoma #38
Assay type: in vivo
Experimental Context: mouse, in vivo, iv
// reported Weight Loss per item
Reported Property: Weight Loss (g)

molecule="CN(C)CCNc1ccc(CN)c2sc3ccccc3c(=O)c12 [18(e), hydrate]" reported_property="Weight Loss" numeric_readout=2.2
molecule=CCN(CC)CCNc1ccc(CNC=O)c2sc3ccccc3c(=O)c12 reported_property="Weight Loss" numeric_readout=2.8
molecule=CCN(CC)CCNc1ccc(C(N)=O)c2sc3ccccc3c(=O)c12 reported_property="Weight Loss" numeric_readout=0.6
molecule=CCN(CC)CCNc1ccc(CNC(=O)C(F)(F)F)c2sc3ccccc3c(=O)c12 reported_property="Weight Loss" numeric_readout=1.2
molecule=CCN(CC)CCNc1ccc(CNS(C)(=O)=O)c2sc3ccccc3c(=O)c12 reported_property="Weight Loss" numeric_readout=5.0
molecule=CCN(CC)CCNc1ccc(CNC)c2sc3ccccc3c(=O)c12 reported_property="Weight Loss" numeric_readout=2.9

###

Test system: pancreatic ductal adenocarcinoma #03
Assay Remarks: antitumor activity in mice against pancreatic ductal adenocarcinoma #03 (Panc 03)
Type: in vivo
Experimental Context: mouse, in vivo
Classify as follows. Reported Weight Loss greater than or equal to 2 g: Y. Reported Weight Loss below: N.

compound=CCN(CC)CCNc1ccc(CNS(C)(=O)=O)c2sc3ccc(OC)cc3c(=O)c12 label=Y
compound="CN(C)CCCNc1ccc(CNS(C)(=O)=O)c2sc3ccccc3c(=O)c12 [21(c), hydrate]" label=Y
compound="CCN(CC)CCNc1ccc(CNS(C)(=O)=O)c2sc3ccc(O)cc3c(=O)c12 [Example 37, hydrate]" label=N
compound="CNCc1ccc(NCCCN(C)C)c2c(=O)c3ccccc3sc12 [19(e), monohydrate]" label=Y
compound=CCN(CC)CCNc1ccc(CN(C)S(C)(=O)=O)c2sc3ccccc3c(=O)c12 label=N
compound="CNCc1ccc(NCCN(C)C)c2c(=O)c3ccccc3sc12 [20(b), hydrate]" label=N
compound="CCN(CC)CCNc1ccc(CNS(=O)(=O)c2ccc(Cl)c(Cl)c2)c2sc3ccccc3c(=O)c12 [Example 26, hydrate]" label=Y

###

Test system: pancreatic ductal adenocarcinoma #03
Assay Remarks: antitumor activity in mice against pancreatic ductal adenocarcinoma #03 (Panc 03)
Type: in vivo
Experimental Context: Table 1; average body weight 25 g; total doses as in E1
# Weight Loss per record follows
Reported Property: Weight Loss (g)

molecule="CCNCc1ccc(NCCN(CC)CC)c2c(=O)c3ccccc3sc12 [Example 14]" target_desc="pancreatic ductal adenocarcinoma #03" numeric_readout=1.2
molecule="CCN(CC)CCNc1ccc(CNC(=O)OC)c2sc3ccccc3c(=O)c12 [Example 34]" target_desc="pancreatic ductal adenocarcinoma #03" numeric_readout=3.6
molecule="CCN(CC)CCNc1ccc(CNS(=O)(=O)c2ccccc2)c2sc3ccccc3c(=O)c12 [Example 9]" target_desc="pancreatic ductal adenocarcinoma #03" numeric_readout=1.6
molecule="CCN(CC)CCNc1ccc(CNC(=O)OC)c2sc3ccc(OC)cc3c(=O)c12 [Example 36]" target_desc="pancreatic ductal adenocarcinoma #03" numeric_readout=0.4
molecule="CCN(CC)CCNc1ccc(CN)c2sc3ccccc3c(=O)c12 [Example 4]" target_desc="pancreatic ductal adenocarcinoma #03" numeric_readout=0.4
molecule="CCN(CC)CCNc1ccc(CN(C)S(=O)(=O)c2ccccc2)c2sc3ccccc3c(=O)c12.CS(=O)(=O)O [Example 29]" target_desc="pancreatic ductal adenocarcinoma #03" numeric_readout=2.4
molecule="CCN(CC)CCNc1ccc(CNC(=O)c2ccccc2)c2sc3ccccc3c(=O)c12 [Example 11]" target_desc="pancreatic ductal adenocarcinoma #03" numeric_readout=0.8
molecule="CCN(CC)CCNc1ccc(C(N)=O)c2sc3ccccc3c(=O)c12 [Example 7]" target_desc="pancreatic ductal adenocarcinoma #03" numeric_readout=3.2
molecule="CCN(CC)CCNc1ccc(C=Nc2ccccc2)c2sc3ccccc3c(=O)c12 [Example 1]" target_desc="pancreatic ductal adenocarcinoma #03" numeric_readout=1.6
